Quick reference: Fold IC50 increase relative to wild-type of the listed items.
Experimental system: HIV-1 JR-CSF Env T297A (HIV-1 JR-CSF) (UniProt P20871)
Test summary: cell-based or functional assay
Numbers only here, please. The scale is fold.

# count of solved cases: 2
PGT-127 (antibody, V domains shown) VH: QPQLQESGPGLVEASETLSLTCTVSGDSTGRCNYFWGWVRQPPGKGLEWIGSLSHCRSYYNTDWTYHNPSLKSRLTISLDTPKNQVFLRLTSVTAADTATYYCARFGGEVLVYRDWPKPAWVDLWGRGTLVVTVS VL: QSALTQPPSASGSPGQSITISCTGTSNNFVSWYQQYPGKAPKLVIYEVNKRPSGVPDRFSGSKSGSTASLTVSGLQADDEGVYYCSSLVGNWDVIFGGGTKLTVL = 1.7
PGT-126 (antibody, V domains shown) VH: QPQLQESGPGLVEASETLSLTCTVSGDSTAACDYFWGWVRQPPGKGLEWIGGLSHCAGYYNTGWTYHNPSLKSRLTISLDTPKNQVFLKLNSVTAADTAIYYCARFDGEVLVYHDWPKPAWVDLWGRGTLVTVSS VL: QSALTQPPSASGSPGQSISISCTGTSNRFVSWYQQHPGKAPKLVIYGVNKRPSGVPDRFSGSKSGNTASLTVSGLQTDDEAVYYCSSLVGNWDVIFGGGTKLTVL = 0.8

Prompt: Would you mind telling me what Fold IC50 increase relative to wild-type value was observed for PGT-131 (antibody, V domains shown) VH: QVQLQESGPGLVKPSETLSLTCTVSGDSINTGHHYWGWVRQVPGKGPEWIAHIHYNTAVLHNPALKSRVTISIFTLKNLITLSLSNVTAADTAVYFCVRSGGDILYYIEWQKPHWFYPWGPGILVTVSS VL: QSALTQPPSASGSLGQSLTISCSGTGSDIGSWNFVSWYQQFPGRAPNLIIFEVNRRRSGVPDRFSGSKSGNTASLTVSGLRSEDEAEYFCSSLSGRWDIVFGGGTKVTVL ?
Response: 1.2

Prompt: Next entry: PGT-123 (antibody, V domains shown) VH: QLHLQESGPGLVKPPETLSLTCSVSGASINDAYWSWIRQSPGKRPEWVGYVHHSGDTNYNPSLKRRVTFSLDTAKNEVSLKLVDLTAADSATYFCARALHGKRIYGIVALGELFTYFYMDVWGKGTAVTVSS VL: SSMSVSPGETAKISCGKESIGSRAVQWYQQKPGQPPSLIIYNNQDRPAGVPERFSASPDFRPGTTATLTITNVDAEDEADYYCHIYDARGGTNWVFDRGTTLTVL
Response: 0.3

Prompt: Next entry: PGT-128 (antibody, V domains shown) VH: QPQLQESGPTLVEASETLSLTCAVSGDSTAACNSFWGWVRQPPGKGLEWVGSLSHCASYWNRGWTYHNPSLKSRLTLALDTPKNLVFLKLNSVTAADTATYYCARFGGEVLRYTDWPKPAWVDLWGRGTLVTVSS VL: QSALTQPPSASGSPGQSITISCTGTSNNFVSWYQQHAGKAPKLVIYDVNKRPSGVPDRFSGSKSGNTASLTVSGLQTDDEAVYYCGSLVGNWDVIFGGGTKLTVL
Response: 1.1
